test.name: qHTS Validation Assay to Find Inhibitors of Chronic Active B-Cell Receptor Signaling (AID 485345)
test.settings: ABC-DLBCL cells, chronic BCR signaling reporter, CBG luciferase; series mostly up to 46.1 µM
Records with an inconclusive call do not appear. Activity calls are given as the source filed them. The call rests on the fitted dose curve; in most records, active means well fitted curve in the direction sought with a large enough effect in the main read-out, with a control signal flat (not every such curve was filed as active); inconclusive means small, poorly fitted or top-dose-only effect, or effect the other way, or a change in a side signal; inactive means no such curve, though single readings can be large or run the other way.
Labels: true = active, false = inactive

• CC[N+](CC)(CC)CCOc1cccc(OCC[N+](CC)(CC)CC)c1OCC[N+](CC)(CC)CC = false
• CCc1cccc2c3c([nH]c12)C(CC)(CC(=O)O)OCC3 (stereo not given) = false
• CCOC(=O)c1ncn2c1CN(C)C(=O)c1cc(F)ccc1-2 = false
• C[C@H]1c2cccc(O)c2C(O)=C2C(=O)[C@]3(O)C(O)=C(C(N)=O)C(=O)[C@@H](N(C)C)[C@@H]3[C@@H](O)[C@@H]21 = false
• CC(COc1ccccc1)N(CCCl)Cc1ccccc1 (stereo not given) = false
• COc1ccc2c(c1)c(CC(=O)O)c(C)n2C(=O)c1ccc(Cl)cc1 = false
• CN1CCN2c3ccccc3Cc3ccccc3C2C1 (stereo not given) = false
• NC(=O)NO = false
• COc1ccc2[nH]cc(CCNC(C)=O)c2c1 = false
• Nc1c2c(nc3ccccc13)CCCC2 = false
• Nc1ccn([C@H]2CC[C@@H](CO)O2)c(=O)n1 = false
• COc1cc2nc(N3CCN(C(=O)c4ccco4)CC3)nc(N)c2cc1OC = false
• CCOC(=O)C(C)(C)Oc1ccc(Cl)cc1 = false
• O=C(c1ccc(OCCN2CCCCC2)cc1)c1c(-c2ccc(O)cc2)sc2cc(O)ccc12 = true
• Clc1ccccc1C(c1ccccc1)(c1ccccc1)n1ccnc1 = false
• O=C(C1CCCCC1)N1CC(=O)N2CCc3ccccc3C2C1 (stereo not given) = false
• O=C(CCCN1CCC(O)(c2ccc(Cl)cc2)CC1)c1ccc(F)cc1 = false
• NCCCCCC(=O)O = false
• Nc1nnc(-c2cccc(Cl)c2Cl)c(N)n1 = false
• Cc1cn([C@H]2C[C@H](N=[N+]=[N-])[C@@H](CO)O2)c(=O)[nH]c1=O = false
• CN1CCC(=C2c3ccccc3C=Cc3ccccc32)CC1 = false
• CCN1CCCC1CNC(=O)c1cc(S(=O)(=O)CC)c(N)cc1OC (stereo not given) = false
• CC(C)Cc1ccc(C(C)C(=O)O)cc1 (stereo not given) = false
• O=C(c1ccc(F)cc1)C1CCN(CCn2c(=O)[nH]c3ccccc3c2=O)CC1 = false
• CCCCc1oc2ccccc2c1C(=O)c1cc(I)c(OCCN(CC)CC)c(I)c1 = false
• CCC1(c2ccccc2)C(=O)NCNC1=O = false
• Cn1c(=O)c2c(ncn2C)n(C)c1=O = false
• NCCS(=O)(=O)O = false
• Nc1nc2c(ncn2COC(CO)CO)c(=O)[nH]1 = false
• CC(C(=O)O)c1cccc(C(=O)c2ccccc2)c1 (stereo not given) = false
• Cc1ccccc1N1C(=O)c2cc(S(N)(=O)=O)c(Cl)cc2NC1C (stereo not given) = false
• C[C@](N)(Cc1ccc(O)c(O)c1)C(=O)O = false
• NC12CC3CC(CC(C3)C1)C2 = false
• NCCc1cnc[nH]1 = false
• Cc1cc(C(C)(C)C)cc(C)c1CC1=NCCN1 = false
• CN1CCC(=C2c3ccccc3CC(=O)c3sccc32)CC1 = false
• CC12CC3CC(C)(C1)CC(N)(C3)C2 = false
• NC(CO)C(=O)NNCc1ccc(O)c(O)c1O (stereo not given) = false
• CC(C)C(=O)Nc1ccc([N+](=O)[O-])c(C(F)(F)F)c1 = false
• CS(=O)(=O)Nc1ccc([N+](=O)[O-])cc1Oc1ccccc1 = false

Reference source for all entries: PubChem BioAssay (NCATS)
